target.of.assay: Cannabinoid receptor 2 (Homo sapiens)
assay.method.text: Agonist activity at human CB2 receptor expressing CHO cells co-expressing Galpha16 by calcium mobilization assay
Format: functional, cell-based
measure.name: EC50 (nM)
Give bare numbers, in nM.

Below, 4 molecules whose answers are already recorded.
{"mol.smiles": "CC(C)(CO)NC(=O)c1cc(C(C)(C)C)n(-c2ccc(F)cc2)n1", "measure.name": "EC50", "units.label": "nM", "measured.result": 685}
{"mol.smiles": "CC(C)(CO)NC(=O)c1cc(C(C)(C)C)n(CCCF)n1", "measure.name": "EC50", "units.label": "nM", "measured.result": 184}
{"mol.smiles": "CCCCCn1nc(C(=O)NC(C)(C)CO)cc1C1CCCCC1", "measure.name": "EC50", "units.label": "nM", "measured.result": 100000}
{"mol.smiles": "CC(C)(CO)NC(=O)c1cc(C(C)(C)C)n(-c2ccc(Cl)cn2)n1", "measure.name": "EC50", "units.label": "nM", "measured.result": 7310}

Your task in this section: give EC50 for each listed record.
1. CCCCCn1nc(C(C)(C)C)cc1C(=O)NC(C)(C)C
2. CCCCCn1nc(C(=O)NCc2ccc(Cl)cc2)cc1C(C)(C)C
3. CCCCCn1nc(C(=O)N[C@@H](C(=O)OC)C(C)(C)C)cc1C(C)(C)C
4. CC(C)(CO)NC(=O)c1cc(C(C)(C)C)n(CCCCCF)n1

Reply:
301
100000
26.1
36.4

###

target.of.assay: Cannabinoid receptor 2 (Homo sapiens, UniProt P34972)
Sequence (P34972 whole entry): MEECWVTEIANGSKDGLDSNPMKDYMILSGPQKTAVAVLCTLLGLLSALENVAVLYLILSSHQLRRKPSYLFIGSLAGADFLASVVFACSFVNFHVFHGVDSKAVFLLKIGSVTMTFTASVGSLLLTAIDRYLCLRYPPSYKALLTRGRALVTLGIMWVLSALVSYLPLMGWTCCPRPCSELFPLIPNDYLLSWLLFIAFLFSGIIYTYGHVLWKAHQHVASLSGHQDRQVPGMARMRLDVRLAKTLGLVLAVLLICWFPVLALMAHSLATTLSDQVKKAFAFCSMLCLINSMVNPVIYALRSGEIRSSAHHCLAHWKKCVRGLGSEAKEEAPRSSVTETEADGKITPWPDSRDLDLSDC
assay.method.text: Agonist activity at human CB2 receptor expressing CHO cells co-expressing Galpha16 by calcium mobilization assay
Format: functional, cell-based
Kindly state pEC50 for each of the entries shown.
Answers are plain numbers, as −log10 of the molar value.

Check out these entries, answers already filled in.
{"mol.smiles": "CCCCCn1nc(C(=O)NC(C)(C)CO)cc1C(F)(F)F", "measure.name": "pEC50", "measured.result": 7.27}
{"mol.smiles": "CCCn1nc(C(=O)NC(C)(C)CO)cc1C(C)(C)C", "measure.name": "pEC50", "measured.result": 6.68}
{"mol.smiles": "CCCCCn1nc(C(=O)NC(C)(C)CO)cc1C1CC1", "measure.name": "pEC50", "measured.result": 4.00}
{"mol.smiles": "CCCCCn1nc(C(=O)NC23CC4CC(CC(C4)C2)C3)cc1C(C)(C)C", "measure.name": "pEC50", "measured.result": 6.71}
{"mol.smiles": "CCCCCn1nc(C(=O)NC(C)(C)CO)c(Br)c1C(C)(C)C", "measure.name": "pEC50", "measured.result": 8.70}
{"mol.smiles": "COc1ccc(-n2nc(C(=O)NC(C)(C)CO)cc2C(C)(C)C)cc1", "measure.name": "pEC50", "measured.result": 4.00}

Hi team, please reply with pEC50 for each item in this list.
1. CCCCCn1nc(C(=O)NC(C)(C)CO)cc1-c1ccc(F)cc1F
2. CCCCCn1nc(C(=O)Nc2ccc(Cl)cc2)cc1C(C)(C)C

Reply:
4.00
5.63
